Reference source: ChEMBL document CHEMBL1146418

- Test system: Platelet
- TEST: Inhibition of platelet activating factor-induced platelet aggregation in rabbit plasma at 300 uM preincubated 3 mins before addition of thrombin by turbidimetric method
- Assay type: functional, Oryctolagus cuniculus
- Parameters: scale not given: the % may be the effect or the level left
The entries below come with measured Activity values attached.
Give the quantity in %, number only.

MOLECULE	SYSTEM_NAME	Activity (%)
O=c1cc(-c2ccc(O)cc2)oc2cc(O)c([C@@H]3O[C@H](CO)[C@@H](O)[C@H](O)[C@H]3O)c(O)c12	Platelet	83.9
O=c1cc(-c2ccc(O)c(O)c2)oc2cc(O)c([C@@H]3O[C@H](CO)[C@@H](O)[C@H](O)[C@H]3O)c(O)c12	Platelet	77.1

Lookup result for O=c1cc(-c2ccc(O)cc2)oc2cc(O)c([C@@H]3O[C@H](CO[C@@H]4O[C@H](CO)[C@@H](O)[C@H](O)[C@H]4O)[C@@H](O)[C@H](O)[C@H]3O)c(O)c12 ; measured Activity: 84.6

Lookup result for O=c1cc(-c2ccc(O)c(O)c2)oc2cc(O)cc(O)c12 ; measured Activity: 53

Lookup result for O=c1cc(-c2ccc(O)c(O)c2)oc2cc(O)c([C@@H]3O[C@H](CO[C@@H]4O[C@H](CO)[C@@H](O)[C@H](O)[C@H]4O)[C@@H](O)[C@H](O)[C@H]3O)c(O)c12 ; measured Activity: 83.5

Lookup result for CC(=O)OC[C@H]1O[C@@H](c2c(OC(C)=O)cc3oc(-c4ccc(OC(C)=O)c(OC(C)=O)c4)cc(=O)c3c2OC(C)=O)[C@H](OC(C)=O)[C@@H](OC(C)=O)[C@@H]1OC(C)=O [ISOORIENTIN PERACETATE] ; measured Activity: 74.7

Lookup result for O=c1cc(-c2ccc(O)c(O)c2)oc2cc(O[C@@H]3O[C@H](CO)[C@@H](O)[C@H](O)[C@H]3O)cc(O)c12 ; measured Activity: 71.9
